- TARGET OF ASSAY: human GPVI-hFc fusion protein (human) (UniProt Q9HCN6)
- PROTOCOL TEXT: ELISA, immobilized hGPVI-hFc; ++ = absorbance 1.0 to 2.0

>  <BINDER>
F1246-1-1 (antibody, from a related filing, V domains shown) VH: EVQLVESGGDLVKPGGSLKLSCAASGFTFSSYGMSWVRQTPDKRLEWVATISNGGTYTYYPDSVKGRFTISRDNAKNTLYLQMSSLKSDDTAMYYCGRLRDYYAMDYWGQGTSVTVSS VL: DIVLTQSPASLAVSLGQRATISCRASESVDSYGNSFMHWYQQKPGQPPKLLIYRASNLESGIPARFSGSGSRTDFTLTINPVEADDVATYYCQQSNEDPWTFGGGTKLEIKR

>  <absorbance>
1 to 2 od

$$$$
